tested.system: T1, BCMA on BCMA-positive NCI-H929, ARP-1 and U266B1 cells (human, UniProt Q02223 1-184)
T1 sequence: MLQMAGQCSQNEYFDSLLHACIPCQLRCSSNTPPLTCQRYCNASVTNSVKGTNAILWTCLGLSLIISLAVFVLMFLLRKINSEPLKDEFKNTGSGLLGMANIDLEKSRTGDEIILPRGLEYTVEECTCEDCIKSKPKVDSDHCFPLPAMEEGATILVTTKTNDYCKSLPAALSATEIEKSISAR
protocol.summary: cell-based or functional assay
Give U266B1, SC239-conjugated 2° antibody cell killing, Span for every item shown.
Numbers only, in %.

# annotated cases, reported U266B1, SC239-conjugated 2° antibody cell killing, Span shown
>  <binder>
10H1 (antibody, V domains shown, chicken HybriFree-derived antibody; also called Antibody 45) VH: AVTLDESGGGLQTPGGALSLVCKASGFTFSGYGMGWMRQAPGKGLEYVARINSAGSDTDYGAAVKGRATISRDNGQSTVRLQLNNLRAEDTATYFCTRGGGGASIDGWGHGTEVIVSS VL: ALTQPSSVSANPGETVKITCSGGGNYYGSYYYGWYQQKAPGSAPVTVIYNNNNRPSNIPSRFSGSKSGSTGTLTITGVQAEDEAVYFCGGFDSSSDAIFGAGTTLTVL

>  <test.result>
89

$$$$
>  <binder>
9H1 (antibody, V domains shown, chicken HybriFree-derived antibody; also called Antibody 44) VH: AVTLDESGGGLQTPGGALSLVCKGSGFTFSDYGMGWMRQAPGKGLQYVARINSAGSDTNYGSAVKGRATISRDDGQSTVRLQLSSLRAEDTGIYYCTRGGGGASIDGWGHGTEVIVSS VL: ALTQPSSVSANPGETVKITCSGGGSYYGSYYYGWYQQKSPGSAPVTLIYNNNNRPSDIPSRFSGSTSGSTGTLTITGVRAEDEAVYYCGSFDSSTDAIFGAGTTLTVL

>  <test.result>
50

$$$$

Give U266B1, SC239-conjugated 2° antibody cell killing, Span for each listed item.
1. 9E12 (antibody, V domains shown, chicken HybriFree-derived antibody; also called Antibody 43) VH: AVTLDESGGGLQTPGGGLSLVCKASGFTFSDYGLGWMRQAPGKGLEYVARINSAGSGTYYGSAVDGRATISRDNGQSTVRLQLNNLRAEDTGTYYCTRGGGGASIDGWGHGTEVIVSS VL: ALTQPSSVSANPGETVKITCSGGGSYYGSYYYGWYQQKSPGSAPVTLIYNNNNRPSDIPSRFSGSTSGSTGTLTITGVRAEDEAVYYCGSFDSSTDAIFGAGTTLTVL
2. 9A5 (antibody, V domains shown, chicken HybriFree-derived antibody; also called Antibody 42) VH: AVTLDESGGGLQTPGGAVSLVCKASGFSISDYGMGWMRQAPGKGLQYVARIDHDGRYTDYGAVVKGRATISRDNGQSTVRLQLNNLRAEDTGTYYCTRGGGAASIDTWGHGTEVIVSS VL: ALTQPSSVSANPGETVKITCSGGGNYVGGYYYGWYQQKAPGSALVTLIYNNNNRPSNIPSRFSGSTSGSTSTLTITGVRAEDEAVYFCGSFDSSTDAIFGAGTTLTVL

Solution:
1: 47; 2: 84

Cited source for all entries: patent US20240368295A1
